Biological target: ATP-binding cassette sub-family B member 6 (Homo sapiens)
Experiment: ABCB6 transporter inhibitors, pilot screen, K562-ABCB6 cells, flow cytometry, validation set (AID 588550);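 also: 0% = DMSO wells and 100% = benzethonium chloride 70 µM positive control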
Settings: K562-ABCB6 porphyrin accumulation, 1 h, at 10 µM, stronger effect = higher value
Measure Name: inhibition (%)
One number for each entry, in %.

structure_notation=O[C@@H](CNC[C@H](O)c1ccccc1)c1ccccc1 target_under_test="ATP-binding cassette sub-family B member 6 (Homo sapiens)" numeric_value=1

Quick one: give me inhibition for each item below, same order please.
1. COc1ccc2cc(CCC(C)=O)ccc2c1
2. COc1ccc(N2C(=O)[C@@H]3Cc4ccccc4CN3C2=O)cc1
3. CN(C)c1nc(N(C)C)nc(N(C)C)n1

Output:
1: 4; 2: 7; 3: 9
